# System under test: Neurogenic locus notch homolog protein 3 (Homo sapiens) (UniProt Q9UM47)
# Sequence (Q9UM47 whole entry, looked up): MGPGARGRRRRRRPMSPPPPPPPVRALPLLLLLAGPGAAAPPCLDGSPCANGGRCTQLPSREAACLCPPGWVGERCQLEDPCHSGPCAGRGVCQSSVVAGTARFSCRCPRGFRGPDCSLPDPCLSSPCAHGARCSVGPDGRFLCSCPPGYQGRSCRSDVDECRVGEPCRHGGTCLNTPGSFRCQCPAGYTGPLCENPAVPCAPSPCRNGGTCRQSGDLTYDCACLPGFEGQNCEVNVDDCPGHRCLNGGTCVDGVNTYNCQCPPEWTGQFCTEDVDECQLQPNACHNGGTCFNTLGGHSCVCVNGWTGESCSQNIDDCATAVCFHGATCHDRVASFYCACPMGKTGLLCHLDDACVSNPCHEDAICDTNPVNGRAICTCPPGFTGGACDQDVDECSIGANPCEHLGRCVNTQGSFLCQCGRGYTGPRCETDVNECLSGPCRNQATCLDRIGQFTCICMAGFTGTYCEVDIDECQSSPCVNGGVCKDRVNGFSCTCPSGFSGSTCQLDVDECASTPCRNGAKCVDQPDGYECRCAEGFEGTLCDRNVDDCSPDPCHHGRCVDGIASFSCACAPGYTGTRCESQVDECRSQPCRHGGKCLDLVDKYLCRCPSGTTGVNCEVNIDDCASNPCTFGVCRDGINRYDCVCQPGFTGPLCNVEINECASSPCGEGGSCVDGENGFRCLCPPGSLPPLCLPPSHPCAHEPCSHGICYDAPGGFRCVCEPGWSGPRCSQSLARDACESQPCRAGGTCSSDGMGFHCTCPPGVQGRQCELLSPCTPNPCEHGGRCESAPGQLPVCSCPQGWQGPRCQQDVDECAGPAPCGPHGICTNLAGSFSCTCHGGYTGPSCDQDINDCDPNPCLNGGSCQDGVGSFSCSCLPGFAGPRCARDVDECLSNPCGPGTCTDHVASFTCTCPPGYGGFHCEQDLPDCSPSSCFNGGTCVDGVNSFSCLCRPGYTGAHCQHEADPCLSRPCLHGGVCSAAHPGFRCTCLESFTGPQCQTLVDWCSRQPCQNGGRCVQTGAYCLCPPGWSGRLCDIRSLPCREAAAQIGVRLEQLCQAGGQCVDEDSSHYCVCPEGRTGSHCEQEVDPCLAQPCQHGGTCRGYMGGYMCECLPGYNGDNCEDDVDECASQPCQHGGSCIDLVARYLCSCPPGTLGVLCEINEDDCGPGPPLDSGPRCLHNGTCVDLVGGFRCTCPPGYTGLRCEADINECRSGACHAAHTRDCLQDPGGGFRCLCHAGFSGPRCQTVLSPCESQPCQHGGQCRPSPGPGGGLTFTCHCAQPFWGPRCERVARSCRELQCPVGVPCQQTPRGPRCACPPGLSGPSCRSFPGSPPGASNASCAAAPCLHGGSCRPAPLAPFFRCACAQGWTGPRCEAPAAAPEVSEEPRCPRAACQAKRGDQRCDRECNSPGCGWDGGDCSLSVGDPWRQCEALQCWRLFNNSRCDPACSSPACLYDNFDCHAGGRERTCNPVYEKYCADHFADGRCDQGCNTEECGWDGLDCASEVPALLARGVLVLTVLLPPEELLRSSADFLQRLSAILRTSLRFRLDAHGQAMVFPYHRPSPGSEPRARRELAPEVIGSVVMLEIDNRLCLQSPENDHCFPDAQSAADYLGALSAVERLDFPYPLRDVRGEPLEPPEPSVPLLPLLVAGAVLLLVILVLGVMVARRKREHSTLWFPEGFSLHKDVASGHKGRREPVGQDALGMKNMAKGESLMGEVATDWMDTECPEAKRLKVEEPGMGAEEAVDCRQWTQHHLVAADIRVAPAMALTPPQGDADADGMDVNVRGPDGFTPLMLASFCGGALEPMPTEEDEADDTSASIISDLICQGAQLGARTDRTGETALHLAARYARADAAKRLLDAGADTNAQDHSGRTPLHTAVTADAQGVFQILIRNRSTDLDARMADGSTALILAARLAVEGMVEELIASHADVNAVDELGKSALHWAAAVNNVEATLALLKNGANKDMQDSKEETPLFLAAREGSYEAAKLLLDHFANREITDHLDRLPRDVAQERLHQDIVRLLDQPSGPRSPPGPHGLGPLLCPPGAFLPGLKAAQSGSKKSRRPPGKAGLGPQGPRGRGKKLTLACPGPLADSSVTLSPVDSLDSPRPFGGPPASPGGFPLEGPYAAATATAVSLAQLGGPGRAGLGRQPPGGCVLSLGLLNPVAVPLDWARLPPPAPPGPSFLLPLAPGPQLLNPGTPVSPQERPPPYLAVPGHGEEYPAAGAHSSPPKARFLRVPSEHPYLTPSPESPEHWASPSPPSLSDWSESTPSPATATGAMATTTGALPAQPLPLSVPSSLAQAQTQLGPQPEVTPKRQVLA
# Assay remarks: NOTCH3 binders on small-molecule microarray, primary screen, biochemical, 635/667 nm fluorescence (AID 1096)
# Test conditions: NOTCH3 binding, 635 nm fluorescence, higher = more signal
// map composite z-score to label using low value (below -0.05), medium value (-0.05 to below 0.5), high value (0.5 or more)

Field: example entries. Status: answers known.
[
  {
    "Compound": "CCOC(=O)NN=C1C[C@@H](O)[C@@H](O)[C@@H]2[C@@H]3C(=O)N(CC)C(=O)[C@@H]3CC[C@H]12",
    "Qualitative label": "low value"
  },
  {
    "Compound": "CCOC(=O)[C@H](Cc1ccccc1)NC(=O)CCC1CC(OC(=O)NCc2cccc3ccccc23)CC2(CCCC(COC(=O)NCCOc3ccccc3)O2)O1 (stereo not given in full)",
    "Qualitative label": "high value"
  },
  {
    "Compound": "CC(C)CN1CCc2nc(-c3ccccc3)c3c(c2C1)CO[C@@H](C)C3",
    "Qualitative label": "high value"
  },
  {
    "Compound": "CCOC(=O)[C@H](Cc1ccccc1)NC(=O)CCC1CC(OC(=O)NCc2cccc3ccccc23)CC2(CCCC(COC(=O)NCc3ccc4c(c3)OCO4)O2)O1 (stereo not given in full)",
    "Qualitative label": "medium value"
  }
]

Query block: # bin lookup: classify CCOC(=O)[C@H](Cc1ccccc1)NC(=O)CCC1CC(OC(=O)NCCc2ccc(F)cc2)CC2(CCCC(COC(=O)NCc3cccc(C(F)(F)F)c3)O2)O1 (stereo not given in full) by its composite z-score
Result block: high value

Query block: # bin lookup: classify `COC(=O)CC=C[C@@H](C)[C@@H](C=NOC[C@@H](C)[C@H](OCc1ccccc1)C(C)C)NS(=O)(=O)c1ccc(C)cc1` by its composite z-score
Result block: low value

Query block: # bin lookup: classify `CO[C@H]1COC(=O)[C@H](CCSC)NC(=O)CC=C[C@@H](C)[C@H](OC)COC(=O)[C@@H](OCc2ccccc2)C=C[C@@H]1C` by its composite z-score
Result block: medium value

Query block: # bin lookup: classify `COC(=O)CC=C[C@@H](C)[C@@H](C=NOC[C@@H](C)[C@H](OCc1ccccc1)C(C)C)OC` by its composite z-score
Result block: medium value

Query block: # bin lookup: classify `C#CCCCON=C1C[C@@H](O)[C@@H](O)[C@@H]2[C@@H]3C(=O)N([C@@H](C)c4ccccc4)C(=O)[C@@H]3CC[C@@H]12` by its composite z-score
Result block: low value

Query block: # bin lookup: classify `CC#CCOCCC=C1c2ccccc2[C@@H](OC)[C@@H]1C` by its composite z-score
Result block: medium value

Query block: # bin lookup: classify `C[C@H]1CC[C@@H](C(=O)O)N[C@@H]1c1ccc(C#Cc2ccccc2)cc1` by its composite z-score
Result block: high value

Query block: # bin lookup: classify O=C1CCCC=C1C(O)c1ccc([N+](=O)[O-])cc1 (stereo not given) by its composite z-score
Result block: medium value

Query block: # bin lookup: classify `CCOC(=O)NN=C1C[C@@H](O)[C@@H](O)[C@@H]2[C@@H]3C(=O)N(C[C@@H]4CCCO4)C(=O)[C@@H]3CC[C@H]12` by its composite z-score
Result block: medium value

Query block: # bin lookup: classify `O=C1C2=CC[C@H]3C(=O)N(C4CCCCC4)C(=O)[C@H]3[C@H]2[C@H](O)[C@@H]2O[C@H]12` by its composite z-score
Result block: low value

###

# System under test: Follistatin (Homo sapiens)
# Assay remarks: follistatin binders on small-molecule microarrays, primary screen, biochemical, small-molecule microarray, 635/667 nm fluorescence (AID 1132)
# Test conditions: FST binding, 635 nm fluorescence, higher = more signal
Classification field: Condition met = composite z-score at or over 0.5; Condition not met = composite z-score under 0.5.

[
  {
    "Compound": "OC[C@H]1O[C@H](C#Cc2ccccc2)C=C[C@@H]1O",
    "Qualitative label": "Condition met"
  },
  {
    "Compound": "COC(=O)CC=C[C@@H](C)[C@@H](C=NOC(C)CN1CCCCc2nc(C)c(C)cc21)NS(=O)(=O)c1ccc(C)cc1 (some centres undefined)",
    "Qualitative label": "Condition met"
  },
  {
    "Compound": "CC(=O)OC[C@H]1O[C@H](CC=NO[C@@H](C)c2cc(-c3c(C)cc(C)cc3C)no2)C=C[C@@H]1OC(C)=O",
    "Qualitative label": "Condition not met"
  },
  {
    "Compound": "CC1(C)O[C@H]2O[C@H]([C@H](O)CON=C3[C@H]4CCn5c(=O)n(-c6ccccc6)c(=O)n5[C@H]4[C@H](O)[C@@H]4O[C@H]34)[C@H](O)[C@H]2O1",
    "Qualitative label": "Condition not met"
  },
  {
    "Compound": "CC(C)=CCCC(C)=CCON=C1[C@H]2CCn3c(=O)n(-c4ccccc4)c(=O)n3[C@H]2[C@H](O)[C@@H]2O[C@H]12",
    "Qualitative label": "Condition met"
  },
  {
    "Compound": "O=C1C=C[C@@H](O)[C@@H]2[C@@H]3C(=O)N(c4cccc(Oc5ccccc5)c4)C(=O)[C@@H]3CC[C@@H]12",
    "Qualitative label": "Condition not met"
  },
  {
    "Compound": "O=C1[C@H]2[C@H]3[C@H](O)[C@H](O)CC(=NOC[C@@H](O)COCc4ccco4)[C@@H]3CC[C@H]2C(=O)N1C1CCCCC1",
    "Qualitative label": "Condition met"
  },
  {
    "Compound": "COc1cccc([C@H]2Oc3ccc(OC)cc3C(=NO[C@@H](C)c3cc(-c4c(C)cc(C)cc4C)no3)[C@@H]2O)c1",
    "Qualitative label": "Condition not met"
  },
  {
    "Compound": "CC[C@@H](c1ccccc1)n1c(=O)n2n(c1=O)[C@H]1[C@H](O)[C@@H]3O[C@@H]3C(=NOCc3ccccc3)[C@H]1CC2",
    "Qualitative label": "Condition met"
  },
  {
    "Compound": "CCN1C(=O)[C@H]2[C@H]3[C@H](O)[C@H](O)CC(=NOC[C@@H](O)[C@H]4O[C@@H]5OC(C)(C)O[C@@H]5[C@H]4O)[C@@H]3CC[C@H]2C1=O",
    "Qualitative label": "Condition not met"
  }
]

Query block: State whether the measured composite z-score reaches 0.5, counting equality as reaching it, for `COc1ccc(COC(=O)NN=C2C[C@@H](O)[C@@H](O)[C@@H]3[C@@H]4C(=O)N(C(C)(C)C)C(=O)[C@@H]4CC[C@@H]23)cc1`
Result block: Condition met

Query block: State whether the measured composite z-score reaches 0.5, counting equality as reaching it, for `CCOC(=O)CCN1C(=O)[C@H]2[C@H]3[C@H](O)[C@H](O)CC(=NO[C@@H]4O[C@H](CO)[C@@H](O)[C@H](O)[C@H]4O)[C@H]3CC[C@H]2C1=O`
Result block: Condition not met

Query block: State whether the measured composite z-score reaches 0.5, counting equality as reaching it, for COCCNC(=O)OCC1CCCC2(CC(OC(=O)NCc3cccc4ccccc34)CC(CCC(=O)N[C@@H](C)C(=O)OC)O2)O1 (some centres undefined)
Result block: Condition met

Query block: State whether the measured composite z-score reaches 0.5, counting equality as reaching it, for `O=C1C2=CC[C@H]3C(=O)N(c4ccc(F)cc4F)C(=O)[C@H]3[C@H]2[C@H](O)[C@@H]2O[C@H]12`
Result block: Condition not met

###

# System: glycogen synthase kinase-3 (GSK3A per assay name; protocol says GSK3B)
# Assay remarks: GSK3 binders on small-molecule microarrays, primary screen, biochemical, small-molecule microarray, 635 nm fluorescence, GSK3A (AID 1103); note: the record names both GSK3A and GSK3B
# Test conditions: small-molecule microarray binding, fluorescence 635 nm; higher = more signal
Classification field: met = composite z-score at or over 0.7; not met = composite z-score under 0.7.

Field: example entries. Status: answers known.
[
  {
    "Compound": "COC(=O)[C@H](C)NC(=O)CCC1CC(OC(=O)NCCc2ccc(F)cc2)CC2(CCCC(COC(=O)NCCOc3ccccc3)O2)O1 (some centres not stated)",
    "Qualitative label": "met"
  },
  {
    "Compound": "CCN1C(=O)[C@H]2[C@H]3[C@H](O)[C@H](O)CC(=NNC(=O)OCc4ccccc4)[C@@H]3CC[C@H]2C1=O",
    "Qualitative label": "not met"
  },
  {
    "Compound": "CC(=O)OC[C@H]1O[C@H](CC=NOC(C)CN2CCCCc3nc(C)c(C)cc32)C=C[C@@H]1OC(C)=O (some centres not stated)",
    "Qualitative label": "met"
  }
]

Query block: State whether the measured composite z-score reaches 0.7, counting equality as reaching it, for COC(=O)[C@H](C)NC(=O)CCC1CC(OC(=O)NCc2cccc3ccccc23)CC2(CCCC(COC(=O)NCc3ccccc3)O2)O1 (some centres not stated)
Result block: met

Query block: State whether the measured composite z-score reaches 0.7, counting equality as reaching it, for CC1(C)O[C@H]2OC([C@H](O)CON3C(=O)c4ccccc4C3=O)[C@H](O)[C@H]2O1 (some centres not stated)
Result block: not met

Query block: State whether the measured composite z-score reaches 0.7, counting equality as reaching it, for `COC(=O)[C@@H]1CC[C@H](C)[C@@H](c2ccc(C)cc2)N1C(=O)c1ccc(C=NOC[C@H]2O[C@H](c3ccccc3)C=C[C@@H]2Oc2ccc(OC)cc2)cc1`
Result block: not met
